Target: T1, biotinylated APRIL (Homo sapiens (Human), UniProt O75888 105-250, biotinylated using NHS-biotin at a molar ratio of 20:1 biotin:APRIL)
T1 construct: also called bio-APRIL
T1 sequence: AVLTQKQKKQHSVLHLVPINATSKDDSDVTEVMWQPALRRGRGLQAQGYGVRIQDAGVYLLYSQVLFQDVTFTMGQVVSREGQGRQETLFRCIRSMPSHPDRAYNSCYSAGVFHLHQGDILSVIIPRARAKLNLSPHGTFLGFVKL
Experiment: scFv inhibition of bio-APRIL (5 ng/ml) binding to coated BCMA fusion protein, streptavidin-DELFIA
READOUT: pIC50
To interpret pIC50, take it as minus log10 of a concentration measured in moles per litre.

The reported value for A034G03 (scFv) scFv: QVQLQQSGAEVKKPGSSVKVSCKASGGTFSNYAISWVRQAPGQGLEWMGGIIPLFDTPNYAQKFQGRVTITADESTSTAYMELSSLRSEDTAVYYCARGNTGPRPFDPWGQGTLVTVSSGGGGSGGGGSGGGGSAQAVLTQPSSVSGAPGQRVTISCSATSPNIGAGDEIHWYQVSPGKAPKLLIYGDIKRPSGVSDRFSGSKSGTTASLAITGLRPEDEADYYCQSYDRTLSGSVVFGGGTKVTVLG in terms of pIC50 is 8.22

The measured pIC50 associated with A020F03 (scFv) scFv: EVQLVQSGAEVKKPGASVKVSCKTSGYTFTDNYMHWVRQAPGQGLEWMGWISPNSSTTLYAQKFRGRVTLTRDTSVSTAYMELSGLDSDDTALYFCARGGRLAGSTVFTPAFEYWGRGTMVTVSSGGGGSGGGGSGGGGSAQAVLTQPSSVSEAPRQRVTISCSGSSSNIGNNAVKWYQQLPGKAPKLLIYYDDLLPSGVSDRFSGSKSGTSASLAISGLQSEDEADYYCAAWDDSLNGYVFGTGTKVTVLG reads 7.92

Just so you know, measured pIC50 for A013B07 (scFv) scFv: EVQLVQSGAEVKKPGASVKVSCKTSGYTFTDNYMHWVRQAPGQGLEWMGWISPNSSTTLYAQKFRGRVTLTRDTSVSTAYMELSGLDSDDTALYFCARGGRLAGSTVFTPAFEYWGQGTMVTVSSGGGGSGGGGSGGGGSAQSVLTQPPSVSEAPRQRVTISCSGSSSNIGANAVNWYQQLPGKAPKLLIYFDDLLPSGVSDRFSGSKSGTSASLAISGLQSEDEADYYCAAWDDSLNGVVFGGGTKLTVLG came out at 8.11

Consider A030D09 (scFv) scFv: QVQLQQSGAEVKKPGSSVKVSCKTSGGAFSHYAIHWVRLAPGQGLEWMGDIIPVYGSTTYAQKFQDRVTISADESTSTAYMELSSLRSEDTAVYYCARSWYYDILTGYWDYYYMDVWGKGTLVTVSSGGGGSGGGGSGGGGSSELTQDPAVSVALGQTVRITCQGDSLRSYYASWYQQKPGQAPVLVIYGKNNRPSGIPDRFSGSSSGNTASLTITGAQAEDEADYYCNSRDSSGNHVVFGGGTKLTVLG . Its measured pIC50 is 7.26

The reported pIC50 of the binder A004G02 (scFv) scFv: QVQLVQSGAEVKKPGSSVKVSCKASGGTFSSYGIRWVRQAPGQGLEWMGGIIPIFGTANYAQKFQGRVTITADEYTSTAYMELSSLRSEDTAVYYCARSNPQYDAFDIWGQGTTVTVSSGGGGSGGGGSGGGGSSYVLTQPPSVSGTPGQRVTVSCSGGRSNIGSNTVKWYQQLPGTAPKLLIYGNDQRPSGVPDRFSGSKSGNTASLTVSGLQVEDEADYYCQSYDSSLRGSVFGGGTKLTVLG was 7.72

Source: patent US20030059862A1
